Recorded AC50 by entry
# Tested on: INS-1E rat beta cells, no cytokines, CellTiter-Glo ATP, 48 h
# method: cytokine-free beta-cell viability effect – INS-1E rat cells, ATP luminescence, cherry pick, counter-screen for beta-cell apoptosis protection project, dose response (AID 463229)

Some entries whose results are on file:
COc1cc(C(=O)N/N=C(\C)c2ccccn2)cc(OC)c1OC; 10.6 µM
CCOC(=O)[C@@H]1[C@H]2COc3cc(OC)ccc3[C@H]2N2C(=O)N(c3ccc(C(F)(F)F)cc3)C(=O)[C@]12C; 15 µM

IN: Name the reported AC50 value associated with the molecule N#C/C(=C\c1ccc([N+](=O)[O-])o1)c1nc2ccccc2[nH]1
OUT: 4.09 µM

IN: Thanks! And CN(Cc1cccnc1)C(=O)c1cc(COc2ccc3ncccc3c2)on1 ?
OUT: 9.3 µM

IN: Thanks! And COc1cc(NC(=O)c2[nH]cnc2C(N)=O)cc(C(=O)Nc2cccc(C(F)(F)F)c2)c1 ?
OUT: 5.21 µM

IN: Thanks! And Oc1[nH]c2ccccc2c1N=NC(=S)N1CCOCC1 ?
OUT: 3.98 µM

IN: Thanks! And CC1CCC(C(C)C)C(OC(=O)Cn2c(-c3ccc(F)cc3)[n+](C)c3ccccc32)C1 (stereo not given) ?
OUT: 4.49 µM

IN: Thanks! And Cc1ccc(Nc2c3c(nc4ccccc24)CCC3)cc1 ?
OUT: 16 µM

IN: Thanks! And Cc1sc2ncnc(NCC(O)c3ccccc3)c2c1C (stereo not given) ?
OUT: 10.5 µM

IN: Thanks! And Cc1cccc(NC(=O)Nc2cccc(Oc3c(F)c(F)c(F)c(F)c3F)c2)c1 ?
OUT: 6.96 µM

IN: Thanks! And CCN(CC)c1ccc(/C=N/NC(=O)CNC(=O)C2COc3ccccc3O2)c(O)c1 (stereo not given) ?
OUT: 5.41 µM

---

Recorded AC50 by entry
# Tested on: INS-1E rat beta cells, no cytokines, CellTiter-Glo ATP, 48 h
# method: cytokine-free beta-cell viability effect – INS-1E rat cells, ATP luminescence, cherry pick, counter-screen for beta-cell apoptosis protection project, dose response (AID 463229)

O=C(NCC#CCSc1nnc(-c2cccc3ccccc23)o1)c1cccs1; 1.9 µM
Cc1cc(C)n(Cc2ccc(NC(=O)c3ccc(COc4ccccc4Br)cc3)cc2)n1; 8.33 µM
CCn1c(-c2ccc(N(C)C)cc2)nc2ccccc21; 3.75 µM
COc1ccc(Nc2nc(N3CCCCC3)c3ccccc3n2)cc1; 12 µM
CC(C)(C)C(=O)Nc1ccc(C(=O)N/N=C/c2ccccc2OC(=O)c2ccc(Cl)cc2)cc1; 11.8 µM
Cc1ccc(N=Nc2ccc(O)c3ncccc23)cc1; 6.58 µM
Cc1ccc(O)c(N=Nc2nccs2)c1; 7.04 µM
CCOc1cccc(/C=N/NC(=O)c2cc(C3CC3)[nH]n2)c1O; 7.83 µM
CC1CCCCC1NS(=O)(=O)c1ccc(S(=O)(=O)NCc2ccncc2)cc1 (stereo not drawn); 4.07 µM
CCOC(=O)c1ccc(NC(=O)Cn2cnc3cc(C)c(C)cc32)cc1; 5.23 µM

IN: Request - read-out AC50 | tested on INS-1E rat beta cells, no cytokines, CellTiter-Glo ATP, 48 h | compound c1ccc(N2CCN(c3nc(-c4ccccn4)nc4ccccc34)CC2)cc1
OUT: 14.9 µM

IN: Thanks! And Cc1ccc(-c2nc(NC(=O)c3nn(C)cc3[N+](=O)[O-])sc2C)cc1 ?
OUT: 5.47 µM

IN: Thanks! And COc1ccc([N+](=O)[O-])c(S(=O)(=O)c2ccc(Cl)cc2)n1 ?
OUT: 7.61 µM

IN: Thanks! And Cc1ccc(O)c(NC(=S)NC(=O)c2ccc(-c3ccc(Cl)cc3)o2)c1 ?
OUT: 23.9 µM

IN: Thanks! And COC(=O)c1ccc2c(c1)C(C)(C)C(/C=C/c1ccc(OC)c(OC)c1OC)=[N+]2C ?
OUT: 2.16 µM

IN: Thanks! And O=[N+]([O-])c1cccnc1N/N=C/c1ccccc1O ?
OUT: 5.45 µM

IN: Thanks! And CN(C)CCCNc1c2ccccc2nc2ccccc12 ?
OUT: 16.2 µM

IN: Thanks! And COc1ccccc1C(=O)Nc1nc(-c2ccc(S(=O)(=O)N3CCOCC3)cc2)cs1 ?
OUT: 5.29 µM

IN: Thanks! And CC1CCN(c2ccc(NC(=O)c3ccc([N+](=O)[O-])o3)cc2)CC1 ?
OUT: 10.1 µM

IN: Thanks! And Cc1ccnc(NC(=O)c2ccc([N+](=O)[O-])s2)c1 ?
OUT: 8.41 µM

IN: Thanks! And CC(Oc1cccc(Cl)c1)C(=O)Nc1cc(S(=O)(=O)N2CCOCC2)ccc1N1CCCCC1 (stereo not drawn) ?
OUT: 5.68 µM

IN: Thanks! And Cc1ccc(NC(=O)c2ccccc2NS(=O)(=O)c2ccc(Cl)s2)cc1 ?
OUT: 5.78 µM

IN: Thanks! And O=C(N/N=C/c1ccccc1O)c1cccc(C(F)(F)F)c1 ?
OUT: 7.18 µM

IN: Thanks! And Cc1ccc(C)c(NC(=O)/C(C#N)=C/c2cn(CC(=O)NCc3ccco3)c3ccccc23)c1 ?
OUT: 5.47 µM

IN: Thanks! And Cc1cccc(/C=C/C(=O)c2ccc([N+](=O)[O-])o2)c1 ?
OUT: 4.26 µM

The reported measurements were obtained from PubChem BioAssay AID463229.
